Origin of values: patent US20220372033A1

- Test system: Mitochondrial toxicity (Glu/Gal)
- assaySummary: Mitochondrial toxicity (Glu/Gal) assay
- Format: cell-based
- conditionNotes: glucose medium; read-out: IC50, glu
measuredQuantity: IC50

Q: I'd like to know its IC50. The compound in question is Cc1c(-c2ccc3cc(-c4cccc(OC(F)(F)F)c4)nn3c2)[nH]c2ccccc2c1=O
A: ≥ 200 µM

====

- System: Mycobacterium tuberculosis (Mtb) bacilli, strain H37Ra
- assaySummary: Phenotypic assay of O2 consumption rate (OCR), Test 4, Seahorse XFe96, with Compound X
- conditionNotes: after Compound X 0.9 μM, test compound 10 μM and uncoupler CCCP 1 μM
measuredQuantity: (ii) % OCR after cccp
Please don't drop the unit; write it after the number.

Cc1c(-c2ccc3nc(-c4ccccc4)cn3c2)[nH]c2ccccc2c1=O
144.1%

Q: Which (ii) % OCR after cccp value is on record for Cc1c(-c2ccc3nc(-c4cccc(OC(F)(F)F)c4)cn3c2)[nH]c2ccccc2c1=O ?
A: 159.3%

Q: Fill in the blank: the reported (ii) % OCR after cccp of Cc1c(-c2ccc3cc(-c4cccc(OC(F)(F)F)c4)nn3c2)[nH]c2ccccc2c1=O [Compound 1] is ____.
A: 93.2%

====

- Test system: rNaCH
- assaySummary: Cardio tox rNaCH
- Text: The compounds of the invention/examples may have advantages associated with in vitro potency, kill kinetics (i.e. bactericidal effect) in vitro, PK properties, food effect, safety/toxicity (including liver toxicity, coagulation, 5-LO oxygenase), metabolic stability, Ames II negativity, MNT negativity, aqueous based solubility (and ability to formulate) and/or cardiovascular effect e.g. on animals (e.g. anesthetized guinea pig). […]
Reported pIC50 by item:
# pIC50 = -log10(concentration in molar units)

For orientation, consider the following solved cases.
Cc1c(-c2ccc3nc(-c4cccc(OC(F)(F)F)c4)cn3c2)[nH]c2ccccc2c1=O
5.42
Cc1c(-c2ccc3cc(-c4cccc(OC(F)(F)F)c4)cn3c2)[nH]c2ccccc2c1=O
5.72
Cc1c(-c2ccc3cc(-c4cccc(OC(F)(F)F)c4)nn3c2)[nH]c2ccccc2c1=O
5.52

Consider the additional molecule presented here.
Q: What does the data say about its pIC50? Entry: Cc1c(-c2ccc3nc(Cc4ccc(OC(F)(F)F)cc4)cn3c2)[nH]c2ccccc2c1=O
A: 5.59

====

- Test system: Mitochondrial toxicity (Glu/Gal)
- assaySummary: Mitochondrial toxicity (Glu/Gal) assay
- Type: cell-based
- conditionNotes: Glu/Gal assay; <3 indicates no mitotoxicity alerts
measuredQuantity: Mitotoxicity Score

Solved cases below.
CCc1nc2ccc(-c3[nH]c4ccccc4c(=O)c3C)cn2c1C(=O)NCc1ccc(OC(F)(F)F)cc1
negative
Cc1c(-c2ccc3cc(-c4cccc(OC(F)(F)F)c4)cn3c2)[nH]c2ccccc2c1=O
negative
Cc1c(-c2ccc3cc(-c4cccc(OC(F)(F)F)c4)nn3c2)[nH]c2ccccc2c1=O [Compound 8]
positive
Cc1c(-c2ccc3nc(Cc4ccc(OC(F)(F)F)cc4)cn3c2)[nH]c2ccccc2c1=O
positive

Q: Recorded Mitotoxicity Score of Cc1c(-c2ccc3cc(-c4cccc(OC(F)(F)F)c4)nn3c2)[nH]c2ccccc2c1=O [Compound 1] , please.
A: positive

====

- System: Mitochondrial toxicity (Glu/Gal)
- assaySummary: Mitochondrial toxicity (Glu/Gal) assay
- Format: cell-based
- conditionNotes: galactose medium; read-out: IC50, gal
measuredQuantity: IC50 (µM)
Give the number; µM is assumed, so skip it.

Q: Form field - read-out: IC50; system: Mitochondrial toxicity (Glu/Gal); submitted item: Cc1c(-c2ccc3cc(-c4cccc(OC(F)(F)F)c4)nn3c2)[nH]c2ccccc2c1=O
A: 10.8
